- ASSAYED TARGET: Receptor tyrosine-protein kinase erbB-2 (Homo sapiens)
- Sequence (P04626 whole entry): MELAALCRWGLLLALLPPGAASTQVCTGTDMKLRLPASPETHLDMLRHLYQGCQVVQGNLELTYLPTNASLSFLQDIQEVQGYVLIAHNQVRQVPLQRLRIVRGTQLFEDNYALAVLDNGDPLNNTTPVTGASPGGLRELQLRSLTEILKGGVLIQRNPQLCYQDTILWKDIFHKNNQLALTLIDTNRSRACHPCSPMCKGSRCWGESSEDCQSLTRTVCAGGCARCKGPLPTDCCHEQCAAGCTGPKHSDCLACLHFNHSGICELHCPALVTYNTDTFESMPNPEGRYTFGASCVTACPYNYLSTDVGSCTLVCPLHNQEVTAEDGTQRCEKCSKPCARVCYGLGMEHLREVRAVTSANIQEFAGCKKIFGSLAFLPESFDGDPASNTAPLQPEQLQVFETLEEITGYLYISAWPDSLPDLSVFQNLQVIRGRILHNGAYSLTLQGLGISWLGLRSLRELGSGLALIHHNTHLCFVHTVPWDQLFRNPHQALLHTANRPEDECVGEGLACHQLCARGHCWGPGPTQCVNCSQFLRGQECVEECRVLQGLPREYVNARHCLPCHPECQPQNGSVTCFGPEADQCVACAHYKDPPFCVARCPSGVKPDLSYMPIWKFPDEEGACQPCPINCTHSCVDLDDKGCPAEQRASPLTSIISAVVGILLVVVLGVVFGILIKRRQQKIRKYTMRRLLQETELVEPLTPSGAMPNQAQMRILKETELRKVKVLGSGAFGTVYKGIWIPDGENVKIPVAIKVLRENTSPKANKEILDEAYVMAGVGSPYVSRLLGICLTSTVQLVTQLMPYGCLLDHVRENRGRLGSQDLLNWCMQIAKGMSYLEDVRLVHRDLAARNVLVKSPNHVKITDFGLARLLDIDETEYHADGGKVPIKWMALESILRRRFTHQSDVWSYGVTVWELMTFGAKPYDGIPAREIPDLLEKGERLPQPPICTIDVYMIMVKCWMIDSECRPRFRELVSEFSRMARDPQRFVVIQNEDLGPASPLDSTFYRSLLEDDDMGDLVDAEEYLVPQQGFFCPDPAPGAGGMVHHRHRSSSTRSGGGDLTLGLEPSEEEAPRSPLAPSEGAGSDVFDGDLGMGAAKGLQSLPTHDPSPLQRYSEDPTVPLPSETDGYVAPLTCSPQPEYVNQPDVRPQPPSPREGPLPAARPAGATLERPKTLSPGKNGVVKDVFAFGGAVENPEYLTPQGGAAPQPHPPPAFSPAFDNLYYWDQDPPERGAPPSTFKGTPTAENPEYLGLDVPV
- ASSAY REMARKS: Inhibition of human HER2
OUTCOME MEASURE: IC50 (µM)
# number only, unit µM dropped from output

Ask: Lab note: need IC50 with Receptor tyrosine-protein kinase erbB-2 (Homo sapiens) for entry `NS(=O)(=O)c1ccc(CCn2c(SCC(=O)Nc3ccc(Cl)cc3)nc3ccccc3c2=O)cc1` , please look it up.
Reply: 0.17

---

- ASSAYED TARGET: Epidermal growth factor receptor (Homo sapiens, UniProt P00533, T790M/L858R)
- Sequence (P00533 25-1210 T790M/L858R limits assumed): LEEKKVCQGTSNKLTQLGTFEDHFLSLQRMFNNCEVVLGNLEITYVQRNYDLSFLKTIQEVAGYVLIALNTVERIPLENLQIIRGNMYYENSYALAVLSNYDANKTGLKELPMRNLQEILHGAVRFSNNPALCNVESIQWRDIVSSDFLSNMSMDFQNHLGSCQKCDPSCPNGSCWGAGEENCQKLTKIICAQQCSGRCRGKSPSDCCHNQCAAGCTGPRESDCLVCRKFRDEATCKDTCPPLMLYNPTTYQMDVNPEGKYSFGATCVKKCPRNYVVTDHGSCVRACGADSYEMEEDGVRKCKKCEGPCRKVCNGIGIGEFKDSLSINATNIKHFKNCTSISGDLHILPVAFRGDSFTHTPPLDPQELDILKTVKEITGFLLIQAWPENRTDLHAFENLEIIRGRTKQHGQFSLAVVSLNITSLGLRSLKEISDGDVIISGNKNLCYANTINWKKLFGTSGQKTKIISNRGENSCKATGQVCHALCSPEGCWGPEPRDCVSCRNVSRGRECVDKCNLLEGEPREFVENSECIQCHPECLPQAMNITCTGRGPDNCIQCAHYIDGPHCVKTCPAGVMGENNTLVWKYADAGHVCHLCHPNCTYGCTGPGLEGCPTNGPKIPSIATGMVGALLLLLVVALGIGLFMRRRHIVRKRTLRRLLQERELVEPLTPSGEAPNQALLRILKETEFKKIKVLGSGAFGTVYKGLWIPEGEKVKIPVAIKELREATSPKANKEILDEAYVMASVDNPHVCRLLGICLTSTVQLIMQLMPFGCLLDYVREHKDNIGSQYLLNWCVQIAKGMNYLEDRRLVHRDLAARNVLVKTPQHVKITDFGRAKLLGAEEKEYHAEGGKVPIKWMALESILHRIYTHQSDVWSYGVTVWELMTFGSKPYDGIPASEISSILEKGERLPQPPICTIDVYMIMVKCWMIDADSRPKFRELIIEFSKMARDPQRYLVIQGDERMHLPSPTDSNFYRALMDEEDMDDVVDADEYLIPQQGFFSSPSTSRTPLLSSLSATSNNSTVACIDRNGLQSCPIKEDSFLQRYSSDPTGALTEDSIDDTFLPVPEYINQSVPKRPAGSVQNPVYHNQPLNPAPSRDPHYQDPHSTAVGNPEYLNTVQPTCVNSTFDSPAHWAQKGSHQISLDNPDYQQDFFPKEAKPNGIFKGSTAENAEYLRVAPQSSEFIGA
- ASSAY REMARKS: Inhibition of EGFR L858R/T790M mutant (unknown origin) incubated for 10 mins in presence of ATP by mobility shift assay
OUTCOME MEASURE: pIC50
In plain terms, pIC50 is the concentration in mol/L turned into minus its base-10 logarithm.

Ask: Record request: pIC50 value, item `CN(C)CCn1cccc1/C=N/NC(=O)Nc1cc2c(Nc3ccc(F)c(Cl)c3)ncnc2cc1O[C@H]1CCOC1`
Reply: 8.25

---

- Tested on: A-431
- ASSAY REMARKS: cells
- Type: functional, cell-based
- CONDITION DESCRIPTION: Homo sapiens, A-431, 48 h
- Description: Antiproliferative activity against human A-431 cells assessed as cell growth inhibition incubated for 48 hrs by MTT assay
OUTCOME MEASURE: IC50 (µM)
Lab book: enter the figure in µM, no units written.

Ask: I am curious: what IC50 value has been reported for `CCCN(c1ccc(F)c(Cl)c1)c1ncnc2cc(OC)c(OCCCN3CCOCC3)cc12` ?
Reply: 1.68

---

- ASSAYED TARGET: Epidermal growth factor receptor (Homo sapiens, UniProt P00533, L858R/T790M)
OUTCOME MEASURE: pIC50
Reminder that pIC50 is minus the log10 of a molar concentration.

Ask: Give Epidermal growth factor receptor (Homo sapiens, UniProt P00533, L858R/T790M) pIC50 for `C=CC(=O)Nc1ccccc1Nc1ncnc2cc(OC)c(OCCN3CCOCC3)cc12`
Reply: 8.37

---

- Tested on: A549
- ASSAY REMARKS: Antiproliferative activity against human A549 cells assessed as cell growth inhibition incubated for 72 hrs under normoxia condition by SRB assay
- Type: functional, cell-based
- CONDITION DESCRIPTION: A549, 72 h
Overview of reported pIC50 across a group of compounds:
Notebook: values listed as pIC50 are -log10 of the concentration (mol/L).

[
  {
    "GIVEN SMILES": "COc1cc2ncnc(Nc3ccc(OCCn4ccnc4[N+](=O)[O-])c(Cl)c3)c2cc1OCCCN1CCOCC1",
    "pIC50": 5.80
  }
]

Could you now consider this next compound?
Ask: pIC50 for `CS(=O)(=O)CCNCc1ccc(-c2ccc3ncnc(Nc4ccc(OCc5cccc(F)c5)c(Cl)c4)c3c2)o1` ?
Reply: 4.95

---

- ASSAY REMARKS: MRT (0 to 24 hrs) in Sprague-Dawley rat plasma at 10 mg/kg, iv by LC-MS/MS analysis
- Format: ADME, organism-based
OUTCOME MEASURE: MRT last (h)
Express it in h; write the number only.

[
  {
    "COMPOUND": "C#Cc1cccc(Nc2ncnc3cc(OC)c(OCCCN4CCOCC4)cc23)c1",
    "MRT last / h": 3.96
  }
]

Now consider a different compound.
Ask: Consider the compound shown here: COc1cc2ncnc(Nc3ccc(F)c(Cl)c3)c2cc1OCCCN1CCOCC1 [GEFITINIB] What is its recorded MRT last?
Reply: 4.54

---

- ASSAYED TARGET: Epidermal growth factor receptor (Homo sapiens, UniProt P00533)
- Sequence (P00533 whole entry): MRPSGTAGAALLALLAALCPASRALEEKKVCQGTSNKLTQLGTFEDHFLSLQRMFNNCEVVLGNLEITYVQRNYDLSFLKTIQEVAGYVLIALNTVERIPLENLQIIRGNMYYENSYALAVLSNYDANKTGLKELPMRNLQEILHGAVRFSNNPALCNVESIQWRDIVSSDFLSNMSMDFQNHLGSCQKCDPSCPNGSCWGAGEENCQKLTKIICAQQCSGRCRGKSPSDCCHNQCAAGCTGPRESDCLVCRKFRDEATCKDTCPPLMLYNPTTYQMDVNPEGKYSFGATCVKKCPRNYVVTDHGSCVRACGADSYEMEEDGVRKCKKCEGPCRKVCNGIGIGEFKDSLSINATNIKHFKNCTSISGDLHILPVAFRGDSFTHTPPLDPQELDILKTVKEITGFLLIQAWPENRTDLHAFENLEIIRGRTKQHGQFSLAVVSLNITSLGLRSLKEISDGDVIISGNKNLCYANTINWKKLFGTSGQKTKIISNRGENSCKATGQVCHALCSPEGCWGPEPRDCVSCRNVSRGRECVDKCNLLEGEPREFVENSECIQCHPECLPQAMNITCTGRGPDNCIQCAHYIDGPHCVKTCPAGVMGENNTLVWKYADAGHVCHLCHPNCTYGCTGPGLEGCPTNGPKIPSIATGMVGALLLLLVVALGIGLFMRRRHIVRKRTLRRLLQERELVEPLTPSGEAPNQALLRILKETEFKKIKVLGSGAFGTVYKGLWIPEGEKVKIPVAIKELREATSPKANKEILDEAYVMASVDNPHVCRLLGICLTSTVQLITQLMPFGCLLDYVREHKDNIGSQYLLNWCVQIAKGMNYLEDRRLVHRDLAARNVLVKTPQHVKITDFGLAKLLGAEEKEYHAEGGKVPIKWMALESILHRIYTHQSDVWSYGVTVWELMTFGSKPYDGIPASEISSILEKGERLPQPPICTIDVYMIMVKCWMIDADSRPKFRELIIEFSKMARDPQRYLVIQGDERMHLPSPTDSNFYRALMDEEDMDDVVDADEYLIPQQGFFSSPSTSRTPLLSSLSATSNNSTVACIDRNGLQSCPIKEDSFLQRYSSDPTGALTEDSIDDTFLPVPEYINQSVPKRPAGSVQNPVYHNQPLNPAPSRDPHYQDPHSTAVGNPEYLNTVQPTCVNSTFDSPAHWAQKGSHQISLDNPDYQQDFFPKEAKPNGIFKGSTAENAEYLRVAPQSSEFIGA
- ASSAY REMARKS: Inhibition of EGFR (unknown origin) incubated for 10 mins in presence of ATP by mobility shift assay
OUTCOME MEASURE: IC50 (nM)
API: value field is a number in nM; no unit string.

Ask: Given `CN(C)CCn1cccc1/C=N/NC(=O)Nc1cc2c(Nc3ccc(F)c(Cl)c3)ncnc2cc1O[C@H]1CCOC1` , state its recorded IC50.
Reply: 0.05

---

- ASSAYED TARGET: Epidermal growth factor receptor (Homo sapiens, UniProt P00533, 746-750DEL)
OUTCOME MEASURE: pIC50
Reminder that pIC50 is minus the log10 of a molar concentration.

Ask: Entry `C#Cc1cccc(Nc2ncnc3cc(OC)c(OCCCN4CCOCC4)cc23)c1` : reported pIC50 = ?
Reply: 8.91

---

- Test system: A549
- ASSAY REMARKS: cells
- CONDITION DESCRIPTION: Homo sapiens
- Description: Antiproliferative activity against human A549 cells assessed as cell growth inhibition by MTT assay
List of pIC50 values.
Formally, pIC50 is defined as -log10 of the concentration c, with c in mol/L.

[
  {
    "GIVEN SMILES": "CCN(CC)CCNCc1ccc(-c2ccc3ncnc(Nc4ccc(OCc5cccc(F)c5)c(Cl)c4)c3c2)o1",
    "pIC50": 5.26
  }
]

Please look at the following compound next.
Ask: Form field: reported pIC50 of `CS(=O)(=O)CCNCc1ccc(-c2ccc3ncnc(Nc4ccc(OCc5cccc(F)c5)c(Cl)c4)c3c2)o1`
Reply: 4.83

---

The following compounds are listed with their measured AUC(0-t) values.
- ASSAY REMARKS: AUClast in Sprague-Dawley rat plasma at 10 mg/kg, iv by LC-MS/MS analysis
- Format: ADME, organism-based
- Parameters: dose 10 mg/kg, route iv
Express it in ng·h/mL; write the number only.

[
  {
    "COMPOUND": "C#Cc1cccc(Nc2ncnc3cc(OC)c(OCCCN4CCOCC4)cc23)c1",
    "AUC(0-t) (ng·h/mL)": 6110
  }
]

// next item, AUC(0-t) requested
Ask: Looking for the measured AUC(0-t) of COc1cc2ncnc(Nc3ccc(F)c(Cl)c3)c2cc1OCCCN1CCOCC1 [GEFITINIB] , can you help?
Reply: 7720

---

- ASSAYED TARGET: UniProt:P00533
OUTCOME MEASURE: IC50 (nM)
Just the number in nM, nothing appended.

Ask: Can you look up IC50 on UniProt:P00533 for `O=C(N/N=C/c1cnc(N2CCCC2)nc1)Nc1cc2c(Nc3ccc(F)c(Cl)c3)ncnc2cc1O[C@H]1CCOC1` ?
Reply: 6.3

---

- ASSAYED TARGET: Epidermal growth factor receptor (Homo sapiens, UniProt P00533, T790M/L858R)
OUTCOME MEASURE: pIC50
To interpret pIC50, take it as minus log10 of a concentration measured in moles per litre.

Ask: For the molecule shown here, `O=C(N/N=C/c1cnc(N2CCCC2)nc1)Nc1cc2c(Nc3ccc(F)c(Cl)c3)ncnc2cc1O[C@H]1CCOC1` , give the reported pIC50.
Reply: 8.08

---

- System: NCI-H1975
- ASSAY REMARKS: Antiproliferative activity against human NCI-H1975 cells assessed as cell growth inhibition incubated for 72 hrs by MTT assay
- Format: functional, cell-based
- CONDITION DESCRIPTION: NCI-H1975, 72 h
OUTCOME MEASURE: pIC50
Quick note: pIC50 means taking -log10 of the concentration in moles per liter.

Ask: NCI-H1975 / pIC50 / `C=CC(=O)Nc1ccccc1Nc1ncnc2cc(OC)c(OCCN3CCOCC3)cc12` : value?
Reply: 5.06

---

- ASSAYED TARGET: Vascular endothelial growth factor receptor 2 (Homo sapiens, UniProt P35968)
- Sequence (P35968 whole entry): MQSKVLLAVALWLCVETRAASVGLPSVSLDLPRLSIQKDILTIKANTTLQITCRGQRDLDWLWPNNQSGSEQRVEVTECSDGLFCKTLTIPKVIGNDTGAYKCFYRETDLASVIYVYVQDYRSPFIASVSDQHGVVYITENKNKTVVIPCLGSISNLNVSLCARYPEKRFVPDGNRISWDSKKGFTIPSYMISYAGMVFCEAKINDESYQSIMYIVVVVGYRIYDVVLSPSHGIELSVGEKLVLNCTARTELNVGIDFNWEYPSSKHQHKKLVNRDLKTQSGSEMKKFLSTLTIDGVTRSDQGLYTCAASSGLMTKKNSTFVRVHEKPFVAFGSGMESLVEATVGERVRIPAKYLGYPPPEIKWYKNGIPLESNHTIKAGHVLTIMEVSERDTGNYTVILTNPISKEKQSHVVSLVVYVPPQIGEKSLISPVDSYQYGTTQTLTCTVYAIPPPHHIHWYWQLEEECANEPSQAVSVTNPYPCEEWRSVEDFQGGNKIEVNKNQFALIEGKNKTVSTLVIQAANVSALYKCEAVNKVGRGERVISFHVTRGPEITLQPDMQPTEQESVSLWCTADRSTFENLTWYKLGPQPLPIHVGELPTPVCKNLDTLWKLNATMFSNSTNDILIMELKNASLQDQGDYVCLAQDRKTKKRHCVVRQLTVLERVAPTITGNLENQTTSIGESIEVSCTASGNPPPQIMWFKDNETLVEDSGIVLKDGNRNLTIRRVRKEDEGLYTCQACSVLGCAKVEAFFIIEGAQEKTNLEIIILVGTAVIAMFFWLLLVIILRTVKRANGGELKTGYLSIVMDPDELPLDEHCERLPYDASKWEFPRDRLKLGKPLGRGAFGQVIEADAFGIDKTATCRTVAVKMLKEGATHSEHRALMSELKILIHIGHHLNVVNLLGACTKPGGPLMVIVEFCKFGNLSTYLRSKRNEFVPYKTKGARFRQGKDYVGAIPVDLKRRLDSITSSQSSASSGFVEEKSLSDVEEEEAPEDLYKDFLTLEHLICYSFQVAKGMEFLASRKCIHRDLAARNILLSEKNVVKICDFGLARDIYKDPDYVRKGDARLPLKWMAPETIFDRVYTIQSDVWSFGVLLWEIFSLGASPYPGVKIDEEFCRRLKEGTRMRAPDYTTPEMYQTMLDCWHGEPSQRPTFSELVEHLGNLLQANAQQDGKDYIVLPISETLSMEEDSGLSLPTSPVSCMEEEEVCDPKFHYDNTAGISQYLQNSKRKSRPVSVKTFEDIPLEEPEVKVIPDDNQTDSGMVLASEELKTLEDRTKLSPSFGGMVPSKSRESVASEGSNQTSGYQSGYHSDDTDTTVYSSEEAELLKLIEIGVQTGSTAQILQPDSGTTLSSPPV
OUTCOME MEASURE: IC50 (nM)
Report as a plain number; the unit nM is understood.

Ask: Provide the documented IC50 with Vascular endothelial growth factor receptor 2 (Homo sapiens, UniProt P35968) as the system for `NS(=O)(=O)c1ccc(CCn2c(SCC(=O)Nc3ccc(Cl)cc3)nc3ccccc3c2=O)cc1`
Reply: 390

---

- ASSAY REMARKS: AUC (0 to infinity) in Sprague-Dawley rat plasma at 10 mg/kg, iv by LC-MS/MS analysis
- Type: ADME, organism-based
- Set-up: dose 10 mg/kg, route iv
OUTCOME MEASURE: AUC(0-inf) (ng·h/mL)
Form entry: value (ng·h/mL) — number only.

[
  {
    "GIVEN SMILES": "COc1cc2ncnc(Nc3ccc(F)c(Cl)c3)c2cc1OCCCN1CCOCC1",
    "OUTPUT UNIT": "ng·h/mL",
    "AUC(0-inf)": 7800
  }
]

Pending compound:
Ask: What does the record list as AUC(0-inf) for `C#Cc1cccc(Nc2ncnc3cc(OC)c(OCCCN4CCOCC4)cc23)c1` ?
Reply: 6150

---

- ASSAYED TARGET: Epidermal growth factor receptor (Homo sapiens, UniProt P00533)
OUTCOME MEASURE: pIC50
FYI, pIC50 means -log10 of a concentration in mol per litre.

Ask: Find the measured pIC50: item `CCCN(c1ccc(F)c(Cl)c1)c1ncnc2cc(OC)c(OCCCN3CCOCC3)cc12` , target or system Epidermal growth factor receptor (Homo sapiens, UniProt P00533).
Reply: 7.67
